# EXPERIMENTAL_SYSTEM: T1, human tumor necrosis factor-α (rHuTNF-alpha, Biosource) (human, UniProt P01375 77-233)
# T1 construct: Bought recombinant protein coated on ELISA plates; The TNFα of the Biacore assay is not described further; also called TNFα; human TNFα
# T1 sequence (P01375 77-233 limits assumed): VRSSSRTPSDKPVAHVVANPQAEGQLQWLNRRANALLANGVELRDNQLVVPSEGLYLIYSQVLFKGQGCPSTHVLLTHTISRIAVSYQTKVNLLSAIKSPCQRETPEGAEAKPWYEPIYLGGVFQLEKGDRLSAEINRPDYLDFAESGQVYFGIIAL
# PROCEDURE_DETAILS: solid-phase ELISA, Fab lysate on coated rHuTNF-alpha
READOUT_TYPE: binding result

SEQ ID NO 171 (Fab, V domains shown, Fab, E. coli lysate) VH: EVQLVESGGGLVQPGGSLRLSCAASQSTFSNHYMNWVRQAPGKGLEWIGEIRSKSIYSATSYAESVKGRFIISRDDNGNSLYLEMNSLKTEDTAEYYCAQNYYGSTPDYWGQGTLVTVS VL: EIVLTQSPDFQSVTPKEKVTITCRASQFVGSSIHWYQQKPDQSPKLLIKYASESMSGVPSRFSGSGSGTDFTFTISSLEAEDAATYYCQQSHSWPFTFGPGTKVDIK	binds
SEQ ID NO 83 (Fab, V domains shown, Fab, E. coli lysate) VH: EVQLTESGGGLVQPGGSLRLSCRASGFIFSNHYMNWVRQAPGKGLEWIGEIRSKSINGATSYAESVKGRFIISRDDNGNSLYLEMNSLKTEDTAEYYCARNYYGSTPDYWGQGTLVTVS VL: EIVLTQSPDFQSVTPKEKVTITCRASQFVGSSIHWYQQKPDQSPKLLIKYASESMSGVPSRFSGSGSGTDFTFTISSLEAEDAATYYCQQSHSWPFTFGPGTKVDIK	binds
SEQ ID NO 92 (Fab, V domains shown, Fab, E. coli lysate) VH: EVQLVESGGGLVQPGGSLRLSCAASGSIFSNHWMNWVRQAPGKGLEWIGEIRSKSSNSATHYAESVKGRFIISRDGNKNDLTLEMNSLKTEDTAEYYCARNYYGSTYDYWGQGTLVTVS VL: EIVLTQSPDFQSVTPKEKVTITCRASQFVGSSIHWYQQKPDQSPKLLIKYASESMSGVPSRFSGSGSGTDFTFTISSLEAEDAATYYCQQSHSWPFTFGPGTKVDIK	binds
